- System: NCI-H226 lung
- assay.info: NCI-60 one-dose screen, 48 h (100 = growth as untreated, 0 = no growth, -100 = all killed)
- condition.set: 10 µM unless noted
The panel holds about 83,000 compounds, 20% with a hit somewhere; the sample as a whole holds those more often.
readout.name: growth (%)

CC1SC(c2ccc(N(C)C)cc2)N(NC(=O)C(O)(c2ccccc2)c2ccccc2)C1=O (stereo not given) : 105
O=C(COc1ccc(-c2nc3cc(Cl)c(Cl)cc3[nH]2)cc1)N=Nc1c(O)[nH]c2ccccc12 : -30.2
N#Cc1c(-c2ccc(Cl)cc2)nc(N=Nc2c(O)[nH]c3ccc(Cl)cc23)nc1N1CCOCC1 : 85.6
C=CC(=O)Nc1cccc(-c2nc(SC)nc(Nc3cccc(OC)c3)c2C#N)c1 : 70.9
CC(O)CN(CC(C)O)c1ccc2c(c1)Cc1cc([N+](=O)[O-])ccc1-2 (stereo not given) : 101
CCOc1cc2c(cc1OCC)C(c1cc(OC)c(O)cc1Cl)NCC2 (stereo not given) : 100
CC(=O)c1cc(C(=O)c2ccc3c(c2)Sc2ccccc2N3)n2ccccc12 : 32.5
Cn1c(NCCc2ccc(O)c(O)c2)nc2c1c(=O)n(Cc1ccc(Br)cc1)c(=O)n2C : 84.1
CCCn1c(=O)[nH]c(N)c([C@H]2c3ccccc3Oc3[nH]c(=O)n(CCC)c(=O)c32)c1=O : 102
Cn1cc(C(=O)c2nc(-c3c[nH]c4ccc(Br)cc34)no2)c2cc(F)ccc21 : 81.5
O=[N+]([O-])c1ccc2c(c1)Cc1cc(F)ccc1-2 : 99.4
COc1cc(-c2nc3ccccc3[nH]2)ccc1OCc1nnc(-c2ccc(CC(C)C)cc2)o1 : 87.7
C=CC(=O)Nc1cccc(Nc2nc(SC)nc(-c3cccc([N+](=O)[O-])c3)c2C#N)c1 : 47.2
CC(=O)c1cc2c(N)c(C(=O)Nc3ccccc3)sc2nc1C : 92
O=C(CN(C(=O)Cn1c(=O)n2nnnc2c2ccccc21)c1ccccc1C(F)(F)F)Nc1ccc(C(F)(F)F)cc1 : 104
COc1cc(-c2nn(-c3ccc(C)cc3)cc2C(=O)O)ccc1O : 102
COc1ccc(CN2c3ccccc3Oc3ccccc32)cc1F : 101
CSc1nc(NCc2ccccc2)c(C#N)c(-c2cccc([N+](=O)[O-])c2)n1 : 94.5
CN(Cc1cc(Cl)cc(Cl)c1O)Cc1cc(Cl)cc(Cl)c1O : 71.5
O=C(O)c1c(=O)cccc2ssc12 : -14.8

* * *

- System: SF-295 CNS
- assay.info: NCI-60 one-dose screen, 48 h
- condition.set: 10 µM unless noted
About 83,000 compounds went through this panel and 20% of them were active in at least one assay; those are over-represented in the sample as a whole. Calls of active or inactive are those of the source. The calls were made as follows: active = growth percent below 10; inactive = the rest.
Outcomes: 1 = active, 0 = inactive

O=C(O)COc1ccc(Cl)cc1C1CCCCC1 : 0
COc1ccc(SC2c3ccc(C)cc3Oc3nc(N)c(C#N)c(N)c32)cc1 (stereo not given) : 0
CSc1ccc(-c2ccccc(=O)c2O)cc1 : 0
CC(=O)OC[C@H]1O[C@H](OC(C)=O)[C@H](NC(=O)/C=C/CCl)[C@@H](OC(C)=O)[C@@H]1OC(C)=O : 0
COc1ccc(O)c(N=Nc2nccs2)c1 : 0
c1ccc2[nH]c(-c3ccc(Nc4nc(N5CCCC5)nc5[nH]ncc45)cc3)nc2c1 : 1
C(=N/Nc1ncc(-c2cc3cc(-c4ccccc4)ccc3o2)s1)/c1cccs1 : 0
O=C(CN(C(=O)Cn1c(=O)n2nnnc2c2ccccc21)c1ccccc1C(F)(F)F)Nc1ccc(C(F)(F)F)cc1 : 0
O=C1CSC(=S)N1CCc1ccc(O)cc1 : 0
COc1cc(/C=C/c2cc(/C=C/c3ccc(O)c(OC)c3)n(-c3c(Cl)cccc3Cl)c(=O)n2)ccc1O : 0
